Tested on: HCT 116 cells
assayMethodText: CellTiter-Glo assay in HCT 116 cells (antiproliferative activity)
Type: cell-based
conditionParameters: HCT 116 human colon carcinoma cells, 5 days (120 h) incubation, CellTiter-Glo luminescence
Overview of reported IC50 across a group of compounds:

# count of solved cases: 8
compound: CC(C)c1cc(-c2nc3cc4c(cc3[nH]2)C(C)(C)C(=O)N4)[nH]n1 [Example 22]
result: 0.1 to 10 µM
//
compound: CC(C)Cc1cc(-c2nc3cc4c(cc3[nH]2)C(C)(C)CC(=O)N4)[nH]n1 [Example 4]
result: 7.65 µM
//
compound: CCCc1cc(-c2nc3cc4c(cc3[nH]2)C(C)(C)CC(=O)N4)[nH]n1 [Example 23]
result: 0.1 to 10 µM
//
compound: CC(C)c1cc(-c2nc3cc4c(cc3[nH]2)NC(=O)C42CCCC2)[nH]n1 [Example 28]
result: 0.1 to 10 µM
//
compound: CC(C)Cc1cc(-c2nc3cc4c(cc3[nH]2)NC(=O)C42CCCC2)[nH]n1 [Example 8]
result: 0.1 to 10 µM
//
compound: Cc1cc(-c2nc3cc4[nH]c(=O)n(C(C)C)c4cc3[nH]2)n[nH]1 [Example 11]
result: 10 to 100 µM
//
compound: Cc1cc(-c2nc3cc4[nH]c(=O)[nH]c4cc3[nH]2)n[nH]1 [Example 9]
result: 10 to 100 µM
//
compound: CC(C)CCc1cc(-c2nc3cc4c(cc3[nH]2)C(C)(C)C(=O)N4)n[nH]1 [Example 18]
result: 0.1 to 10 µM

In: Quick one: IC50 for CCCc1cc(-c2nc3cc4c(cc3[nH]2)N(CC)C(=O)C4(C)C)[nH]n1 [Example 33, acetic acid] ?
Out: 0.1 to 10 µM

In: Quick one: IC50 for CCCN1C(=O)C(C)(C)c2cc3[nH]c(-c4cc(C(F)(F)F)n[nH]4)nc3cc21 [Example 41] ?
Out: 0.1 to 10 µM

In: Quick one: IC50 for CN1C(=O)C(C)(C)c2cc3nc(-c4cc[nH]n4)[nH]c3cc21 [Example 30] ?
Out: 0.1 to 10 µM

In: Quick one: IC50 for Cc1cc(-c2nc3cc4c(cc3[nH]2)N(C)C(=O)C4(C)C)n[nH]1 [Example 31] ?
Out: 0.1 to 10 µM

In: Quick one: IC50 for Cc1cc(-c2nc3cc4c(cc3[nH]2)NC(=O)C42CCCC2)[nH]n1 [Example 7] ?
Out: 0.1 to 10 µM

In: Quick one: IC50 for CC1(C)C(=O)Nc2cc3nc(-c4cc[nH]n4)[nH]c3cc21 [Example 20] ?
Out: 0.1 to 10 µM

In: Quick one: IC50 for CCN1C(=O)C(C)(C)c2cc3[nH]c(-c4cc(SC)[nH]n4)nc3cc21 [Example 45] ?
Out: 0.1 to 10 µM

---

systemUnderTest: Aurora A (Homo sapiens, UniProt O14965)
Sequence (O14965 whole entry): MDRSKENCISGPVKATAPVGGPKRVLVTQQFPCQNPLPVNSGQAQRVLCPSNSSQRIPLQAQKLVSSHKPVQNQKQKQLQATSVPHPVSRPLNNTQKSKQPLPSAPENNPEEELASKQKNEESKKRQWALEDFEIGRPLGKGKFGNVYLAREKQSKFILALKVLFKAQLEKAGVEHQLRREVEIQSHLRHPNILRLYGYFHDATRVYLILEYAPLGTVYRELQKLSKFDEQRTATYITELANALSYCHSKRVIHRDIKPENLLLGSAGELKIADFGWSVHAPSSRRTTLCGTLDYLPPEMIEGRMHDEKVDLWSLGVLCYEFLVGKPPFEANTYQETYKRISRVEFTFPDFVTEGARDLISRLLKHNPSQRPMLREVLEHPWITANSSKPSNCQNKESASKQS
pIC50: −log10 of the molar value.
observationType: pIC50

# count of solved cases: 3
molecule: Cc1cc(-c2nc3cc4[nH]c(=O)n(C)c4cc3[nH]2)n[nH]1 [Example 10]
pIC50: 6.30 to 8.00
//
molecule: O=C1Nc2cc3[nH]c(-c4ccn[nH]4)nc3cc2C12CCCC2 [Example 27]
pIC50: 6.30 to 8.00
//
molecule: CCCN1C(=O)C(C)(C)c2cc3[nH]c(-c4cc(C(F)(F)F)n[nH]4)nc3cc21 [Example 41]
pIC50: 5.82 to 6.30

In: Please provide the recorded pIC50 for CCCc1cc(-c2nc3cc4c(cc3[nH]2)NC(=O)C42CCCC2)[nH]n1 [Example 29] , tested on Aurora A (Homo sapiens, UniProt O14965).
Out: 5.82 to 6.30

---

Overview of reported IC50 across a group of compounds:
Test system: HCT 116 cells
assayMethodText: CellTiter-Glo assay in HCT 116 cells (antiproliferative activity)
Assay type: cell-based
conditionParameters: HCT 116 human colon carcinoma cells, 5 days (120 h) incubation, CellTiter-Glo luminescence

# count of solved cases: 8
compound: Cc1cc(-c2nc3cc4c(cc3[nH]2)C(C)(C)C(=O)N4C(C)C)[nH]n1 [Example 34]
IC50: 0.1 to 10 µM
--
compound: O=C1Nc2cc3[nH]c(-c4ccn[nH]4)nc3cc2C12CCCC2 [Example 27]
IC50: 0.1 to 10 µM
--
compound: Cc1[nH]nc(-c2nc3cc4c(cc3[nH]2)C(C)(C)C(=O)N4)c1C [Example 17]
IC50: 0.1 to 10 µM
--
compound: CCN1C(=O)C(C)(C)c2cc3nc(-c4cc(OC)[nH]n4)[nH]c3cc21 [Example 44]
IC50: 0.1 to 10 µM
--
compound: CCCc1cc(-c2nc3cc4c(cc3[nH]2)C(C)(C)C(=O)N4C(C)C)[nH]n1 [Example 35]
IC50: 0.1 to 10 µM
--
compound: Cc1cc(-c2nc3cc4c(cc3[nH]2)NC(=O)C4(C)C)n[nH]1 [Example 5]
IC50: 0.1 to 10 µM
--
compound: CC(C)Cc1cc(-c2nc3cc4c(cc3[nH]2)C(C)(C)C(=O)N4)[nH]n1 [Example 6]
IC50: 0.1 to 10 µM
--
compound: CC(=O)N1CC(C)(C)c2cc3nc(-c4cc(C)n[nH]4)[nH]c3cc21 [Example 2]
IC50: 4.67 µM

Proceeding to the next compound to report its IC50.
In: Please provide the recorded IC50 for CC(C)Cc1cc(-c2nc3cc4c(cc3[nH]2)N(C)C(=O)C4(C)C)[nH]n1 [Example 16] , tested on HCT 116 cells.
Out: 0.1 to 10 µM

---

Hi! I'm sharing some pIC50 results obtained with Aurora A (Homo sapiens).
pIC50: −log10 of the molar value.

structure: Cc1[nH]nc(-c2nc3cc4c(cc3[nH]2)C(C)(C)C(=O)N4)c1C
result: 6.30 to 8.00

In: Please provide the recorded pIC50 for CCCN1C(=O)C(C)(C)c2cc3[nH]c(-c4cc(C)n[nH]4)nc3cc21 , tested on Aurora A (Homo sapiens).
Out: 6.30 to 8.00

In: Please provide the recorded pIC50 for Cc1cc(-c2nc3cc4c(cc3[nH]2)C(C)(C)C(=O)N4C(C)C)[nH]n1 , tested on Aurora A (Homo sapiens).
Out: 6.30 to 8.00

In: Please provide the recorded pIC50 for CC(C)Cc1cc(-c2nc3cc4c(cc3[nH]2)C(C)(C)C(=O)N4)[nH]n1 , tested on Aurora A (Homo sapiens).
Out: 5.82 to 6.30

In: Please provide the recorded pIC50 for Cc1cc(-c2nc3cc4c(cc3[nH]2)NC(=O)C4(C)C)n[nH]1 , tested on Aurora A (Homo sapiens).
Out: 6.30 to 8.00

In: Please provide the recorded pIC50 for CC(C)Cc1cc(-c2nc3cc4c(cc3[nH]2)C(C)(C)CC(=O)N4)[nH]n1 , tested on Aurora A (Homo sapiens).
Out: 5.82 to 6.30

In: Please provide the recorded pIC50 for CC(=O)N1CC(C)(C)c2cc3nc(-c4cc(C)n[nH]4)[nH]c3cc21 , tested on Aurora A (Homo sapiens).
Out: 6.30 to 8.00

---

System: HCT 116 cells
assayMethodText: CellTiter-Glo assay in HCT 116 cells (antiproliferative activity)
Format: cell-based
conditionParameters: HCT 116 human colon carcinoma cells, 5 days (120 h) incubation, CellTiter-Glo luminescence
Overview of reported IC50 across a group of molecules:

# count of solved cases: 5
structure: CCN1C(=O)C(C)(C)c2cc3nc(-c4cc(CC(C)C)n[nH]4)[nH]c3cc21
observationType: IC50
result: 0.1 to 10 µM
//
structure: CCN1C(=O)C(C)(C)c2cc3nc(-c4cc(C(F)(F)F)[nH]n4)[nH]c3cc21
observationType: IC50
result: 0.1 to 10 µM
//
structure: CCCc1cc(-c2nc3cc4c(cc3[nH]2)N(C)C(=O)C4(C)C)[nH]n1
observationType: IC50
result: 1.2 µM
//
structure: CCCc1cc(-c2nc3cc4c(cc3[nH]2)N(CCC)C(=O)C4(C)C)[nH]n1
observationType: IC50
result: 0.1 to 10 µM
//
structure: O=C1Nc2cc3nc(-c4cc(C5CC5)[nH]n4)[nH]c3cc2C12CCCC2
observationType: IC50
result: 0.1 to 10 µM

In: Please provide the recorded IC50 for CCN1C(=O)C(C)(C)c2cc3nc(-c4cc[nH]n4)[nH]c3cc21 , tested on HCT 116 cells.
Out: 0.1 to 10 µM

In: Please provide the recorded IC50 for CCCN1C(=O)C(C)(C)c2cc3[nH]c(-c4cc(C)n[nH]4)nc3cc21 , tested on HCT 116 cells.
Out: 0.1 to 10 µM

In: Please provide the recorded IC50 for Cc1cc(-c2nc3cc4c(cc3[nH]2)C(C)(C)CC(=O)N4)n[nH]1 , tested on HCT 116 cells.
Out: 10 to 100 µM

In: Please provide the recorded IC50 for CC1(C)C(=O)Nc2cc3nc(-c4cc(C(F)(F)F)n[nH]4)[nH]c3cc21 , tested on HCT 116 cells.
Out: 10 to 100 µM
